Examples of compounds with documented pKi follow.
- experimental-target: Carbonic anhydrase 9 (Homo sapiens)
API: returns pKi as number; meaning -log10 of concentration in mol/L.

Illustrative cases are given below, each with its answer.
Please fill in: pKi reported for NS(=O)(=O)OC[C@H]1OC(O)[C@@H](O)[C@@H](O)[C@@H]1O (stereo not given in full) = 7.28

Please fill in: pKi reported for `CO[C@H]1O[C@H](COS(N)(=O)=O)[C@@H](O)[C@H](O)[C@H]1O` = 8.05

Please fill in: pKi reported for NS(=O)(=O)OC[C@H]1OC(O)[C@H](O)[C@@H](O)[C@@H]1O (stereo not given in full) = 8.07

Please fill in: pKi reported for `CC(=O)OC[C@H]1O[C@@H](OC(C)=O)[C@H](OC(C)=O)[C@@H](OC(C)=O)[C@@H]1O[C@H]1O[C@H](COS(N)(=O)=O)[C@@H](OC(C)=O)[C@H](OC(C)=O)[C@H]1OC(C)=O` = 6.20

Now consider the entry below.
Please fill in: pKi reported for `CO[C@H]1O[C@H](COS(N)(=O)=O)[C@@H](OC(C)=O)[C@H](OC(C)=O)[C@H]1OC(C)=O` = 8.08
